# System: CCRF-CEM leukemia
# Procedure summary: NCI-60 one-dose screen, 48 h (100 = growth as untreated, 0 = no growth, -100 = all killed)
# Experimental context: 10 µM unless noted
Compounds without any hit were thinned out: in the full panel of roughly 83,000, 20% have a hit. Active and inactive are the calls of the source. How the source made its calls: active means growth percent below 10; inactive means the rest.
Recorded growth values for a group of molecules are listed next.

Molecule	Test system	growth
O=C(c1ccccc1)C1C(=O)N2C(=S)N(c3ccccc3)C(=O)C2C1c1ccc(Cl)cc1 (stereo not drawn)	CCRF-CEM leukemia	98% (inactive)
COc1ccc(-c2nc3c(c(-c4ccccc4)nn3-c3ccccc3)c(-c3ccc(N4CCOCC4)cc3)c2C#N)cc1	CCRF-CEM leukemia	99.6% (inactive)
Cc1cc2c([nH]1)CSc1cc(S(=O)(=O)c3ccccc3)c(=O)[nH]c1-2	CCRF-CEM leukemia	19.3% [100 µM] (inactive)
COC(=O)c1n[nH]c2ccc3nc(-c4cn[nH]c4C(F)(F)F)c4c(c3c12)CCCC4	CCRF-CEM leukemia	42.8% (inactive)
CC1=C(Nc2ccc(N3CCN(C)CC3)cc2)C(=O)c2cncnc2C1=O	CCRF-CEM leukemia	5.93% (active)
C=CC(=O)NCc1ccc(Nc2nccc(-c3ccc(N4CCCC4)c(C#N)c3)n2)cc1	CCRF-CEM leukemia	49.1% (inactive)
COc1ccc(OC)c(C(=O)/C=C/c2cc3c(c(OC)c2OC)OCO3)c1	CCRF-CEM leukemia	40.1% (inactive)
CN(C)CCCC1(c2ccc(F)cc2)OCc2cc(-c3cncc4ccccc34)ccc21 (stereo not drawn)	CCRF-CEM leukemia	26.9% (inactive)
Oc1ccc(CCn2c(O)c(/C=C3\CN=c4ccccc4=N3)sc2=S)cc1	CCRF-CEM leukemia	7.79% (active)
O=S(=O)(Nc1ccc(Cl)cc1)c1ccc(-c2cnc(C3CC3)o2)cc1	CCRF-CEM leukemia	11.4% (inactive)
COc1cccc([C@H]2c3[nH]c4ccccc4c3C[C@H]3C(=O)N(CCCCCCC(=O)NO)CC(=O)N23)c1	CCRF-CEM leukemia	14% (inactive)
CC(C)(C)n1cc(-c2ccnc(NCCCNS(=O)(=O)c3ccc(F)cc3)c2)c(-c2cccc(F)c2)n1	CCRF-CEM leukemia	49.1% (inactive)
Fc1ccc2[nH]cc(-c3nonc3-c3c[nH]c4ccc(Br)cc34)c2c1	CCRF-CEM leukemia	26% (inactive)
O=C(Nc1nc2ccc(F)cc2s1)c1cccnc1Nc1ccc(Cl)cc1	CCRF-CEM leukemia	5.11% (active)
COc1ccc2[nH]cc(C(c3cc(F)cc(F)c3)c3c[nH]c4ccc(OC)cc34)c2c1	CCRF-CEM leukemia	60.1% (inactive)
O=C1NC(=O)c2c1c1c3ccccc3ccc1c1[nH]c3ccc(Br)cc3c21	CCRF-CEM leukemia	10.8% (inactive)
COc1ccc(Cc2cc(-c3ccccc3)nn(Cc3ccccc3)c2=O)cc1OC	CCRF-CEM leukemia	43% (inactive)
N#CC1=C(N)Oc2c(sc3c(F)cccc23)C1c1ccc(F)cc1 (stereo not drawn)	CCRF-CEM leukemia	19.8% (inactive)
C=C(C)[C@@H]1CC[C@]2(C)[C@H](CC=C3[C@@H]4[C@H](C)[C@@H](C)CC[C@]4(CO)CC[C@]32C)[C@@]1(C)CCCN	CCRF-CEM leukemia	0.722% (active)
COc1ccc(-c2nnc3n(C)c(=O)c4ccccc4n23)cc1N	CCRF-CEM leukemia	18.5% (inactive)
CN([O-])c1nc(N(C)[O-])nc(N2CCOCC2)n1.CN([O-])c1nc(N(C)[OH2+])nc(N2CCOCC2)n1.[Fe+3]	CCRF-CEM leukemia	11.7% [100 µM] (inactive)
COc1ccc(/C=N/C2=C(C#N)C(c3cccc(Cl)c3)c3c(ccc4ccccc34)O2)cc1 (stereo not drawn)	CCRF-CEM leukemia	16.9% (inactive)
N#CC1=C(N)Oc2c(sc3c(Br)cccc23)C1c1ccc(F)cc1 (stereo not drawn)	CCRF-CEM leukemia	18.4% (inactive)
CN1CCN(c2ccc(NC(=O)c3nc4ccc5[nH]ncc5c4c4c3CCCC4)cc2C(F)(F)F)CC1	CCRF-CEM leukemia	5.81% (active)
NC(=O)c1c(NC(=O)c2ccccc2)sc2c1CCC(=O)C2	CCRF-CEM leukemia	5.12% (active)
CNc1nc(S(=O)c2ccc(C#N)cc2)nc2ccccc12 (stereo not drawn)	CCRF-CEM leukemia	32.2% (inactive)
CN1CCN(C(=O)c2ccc(NC(=O)Nc3ccc(-c4nc(N5CCOCC5)c5cccn5n4)cc3)cc2)CC1	CCRF-CEM leukemia	16.9% (inactive)
O=C(/C=C/c1cccs1)c1ccc(Cl)nc1	CCRF-CEM leukemia	91.4% (inactive)
C[C@]12C=CC(=O)C=C1CCC1C2[C@@H](O)C[C@@]2(C)C1CC[C@]2(O)C(=O)COC(=O)CCC(=O)O (stereo partly drawn)	CCRF-CEM leukemia	60.9% (inactive)
COc1ccc2c(c1)[n+]([O-])c(C(=O)/C=C/C=C(\Cl)c1cc(OC)c(OC)c(OC)c1)c(C)[n+]2[O-]	CCRF-CEM leukemia	99.8% (inactive)
CCCCCCNC(=O)Oc1ccc(/C(=C(/C)Cc2ccc(OC)cc2)c2ccc(OCCCN(C)C)cc2)cc1	CCRF-CEM leukemia	-2.26% (active)
N#CC1=C(c2ccc(Cl)cc2)Nc2c(c(-c3ccc(Cl)cc3)nn2-c2ccccc2)C12C(=O)Nc1ccc(Cl)cc12 (stereo not drawn)	CCRF-CEM leukemia	35.9% (inactive)
CN(C)CC(=O)Nc1ccc2ncnc(Nc3ccc(Oc4cccc(C(F)(F)F)c4)c(Cl)c3)c2c1	CCRF-CEM leukemia	48.3% (inactive)
O=C(CI)NC1Oc2ccccc2-c2oc(=O)c(-c3ccccc3)cc21 (stereo not drawn)	CCRF-CEM leukemia	-23.4% (active)
O=C1Nc2ccccc2/C1=C\c1nc(-c2ccccc2)n2ccccc12	CCRF-CEM leukemia	84.1% (inactive)
Cc1ccccc1NC(=O)c1sc2nc(C)c(C(=O)/C=C/c3ccccc3)cc2c1N	CCRF-CEM leukemia	8.43% (active)
CCOC(=O)c1cc(C(=O)c2cc(OC)c(OC)c(OC)c2)n2ccc(-c3ccncc3)cc12	CCRF-CEM leukemia	90% (inactive)
Brc1ccc2[nH]cc(-c3nonc3-c3c[nH]c4ccccc34)c2c1	CCRF-CEM leukemia	38.8% (inactive)
